experiment: Transport experiment with Caco-2 cell monolayers; conditions: human, Caco-2, apparent permeability coefficient (Papp), reference compounds, validation of Caco-2 monolayers
measure-name: Papp at 180 min
For clarity, give the value followed by its unit.

Give the reported Papp at 180 min for this compound. CC(C)NCC(O)COc1cccc2ccccc12 (stereo not shown) [propranolol, reference compound]
41.2 ×10⁻⁶ cm/s

* * *

assay: Transport experiment with Caco-2 cell monolayers; conditions: human, Caco-2, Papp, Caco-2 cell monolayers, extract 20 mg/mL, BL→AP
measure-name: Papp at 180 min, 20 mg/mL (×10⁻⁶ cm/s)
Just the number in ×10⁻⁶ cm/s, nothing appended.

Examples from the recorded data:
compound | measure-name | unit-label | observed-value
COc1cc(C(=O)O)cc(CC=C(C)C)c1O [proglobeflowery acid] | Papp at 180 min, 20 mg/mL | ×10⁻⁶ cm/s | 142
O=c1cc(-c2ccc(O)c(O)c2)oc2c([C@@H]3O[C@H](CO)[C@@H](O)[C@H](O)[C@H]3O)c(O)cc(O)c12 [orientin] | Papp at 180 min, 20 mg/mL | ×10⁻⁶ cm/s | 11.8
O=c1cc(-c2ccc(O)cc2)oc2c([C@@H]3O[C@H](CO)[C@@H](O)[C@H](O)[C@H]3O)c(O)cc(O)c12 [vitexin] | Papp at 180 min, 20 mg/mL | ×10⁻⁶ cm/s | 16.4

Give the reported Papp at 180 min, 20 mg/mL for this compound. O=C1CC[C@H]2c3cc(O)c(O)cc3CCN12 [trolline]
194

Give the reported Papp at 180 min, 20 mg/mL for this compound. O=c1cc(-c2ccc(O)c(O)c2)oc2c(C3OC(CO)C(O)C(O)C3OC3OC(CO)C(O)C(O)C3O)c(O)cc(O)c12 [2″-O-β-L-galactopyranosylorientin]
34.9

Give the reported Papp at 180 min, 20 mg/mL for this compound. COc1ccc(C(=O)O)cc1OC [veratric acid]
210
